target: Man(a1-3)[Man(a1-6)]Man(a1-6)[Man(a1-3)]Man(b1-4)GlcNAc(b1-4)GlcNAc; experiment: glycan array binding signal (z-score within array); higher = stronger binding; conditions: glycan notation: IUPAC condensed, linker removed
This is one part of a sample in which the strongest signals are shown more often than they occur.
// reported glycan array binding signal (z-score) per item
Number, no unit, nothing else.

For orientation, consider the following solved cases.
binder="HHA (Hippeastrum hybrid) (protein) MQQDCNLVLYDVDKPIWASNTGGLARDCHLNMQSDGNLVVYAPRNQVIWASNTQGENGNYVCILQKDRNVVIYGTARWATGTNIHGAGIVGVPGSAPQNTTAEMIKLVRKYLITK" parameter="glycan array binding signal (z-score)" meas_value=5.15
binder="ArathEULS3 TAP (Arabidopsis thaliana) (protein) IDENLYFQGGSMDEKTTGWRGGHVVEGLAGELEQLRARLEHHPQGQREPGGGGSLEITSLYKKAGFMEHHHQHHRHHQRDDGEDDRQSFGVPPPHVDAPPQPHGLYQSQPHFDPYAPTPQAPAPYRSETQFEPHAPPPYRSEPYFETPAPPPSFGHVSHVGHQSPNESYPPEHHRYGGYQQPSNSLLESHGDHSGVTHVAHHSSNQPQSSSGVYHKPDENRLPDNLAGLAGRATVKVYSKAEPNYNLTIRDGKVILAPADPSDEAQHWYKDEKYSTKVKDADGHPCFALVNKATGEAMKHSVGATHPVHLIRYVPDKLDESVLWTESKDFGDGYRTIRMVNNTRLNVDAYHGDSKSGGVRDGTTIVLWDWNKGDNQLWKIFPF" parameter="glycan array binding signal (z-score)" meas_value=3.03
binder="MD-2 (Homo sapiens) (protein) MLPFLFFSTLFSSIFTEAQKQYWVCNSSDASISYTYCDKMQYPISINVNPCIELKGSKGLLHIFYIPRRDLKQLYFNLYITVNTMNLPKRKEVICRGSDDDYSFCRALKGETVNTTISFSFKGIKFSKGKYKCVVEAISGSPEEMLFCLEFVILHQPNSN" parameter="glycan array binding signal (z-score)" meas_value=0.116

Turning now to a further binder:
For this binder ( Langerin K299A/K313A (Homo sapiens), Q9UJ71 (protein) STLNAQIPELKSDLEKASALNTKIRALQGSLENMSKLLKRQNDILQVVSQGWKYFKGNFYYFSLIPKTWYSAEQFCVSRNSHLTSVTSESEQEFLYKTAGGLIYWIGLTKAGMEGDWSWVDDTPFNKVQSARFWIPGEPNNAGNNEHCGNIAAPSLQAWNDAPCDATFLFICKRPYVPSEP ), measured glycan array binding signal (z-score) is -0.582

Cited source: the supplement of paper PMC8728848
